Reference source: ChEMBL document CHEMBL4665734

experiment: Stability of the compound in human plasma assessed as parent compound remaining after 24 hrs; type: ADME, cell-free; conditions: read-out: Stabilty
Starred links: 1 amine or outer side, 2 acyl side, 3 side chain; linkers in the order of their positions; H or OH if unused. Non-standard residues stand in square brackets, D forms with d. Residues, ends and D or L forms follow the SMILES beside them. *: point of attachment. dAlaψ(CH2NBu)Nle = CCCC[C@@H](C(=O)[*:2])N(CCCC)C[C@@H](C)N[*:1]; X3 = C[C@H](CO[C@H](CC1CC2(CCC2)C1)[C@@H](C)C(=O)[*:2])N[*:1]; X10 = CCCCCC[C@@H](OC[C@@H](CC)N[*:1])[C@@H](C)C(=O)[*:2]; X8 = CCCCCC[C@@H](O[C@@H](C)CN[*:1])[C@@H](C)C(=O)[*:2]; X7 = CCCCCC[C@@H](O[C@H](C)CN[*:1])[C@@H](C)C(=O)[*:2]; Cyclobutyl(trans-3-NH2) = N[C@H]1C[C@H](*)C1; X4 = CCCCCCN(CCN[*:1])[C@@H](C)C(=O)[*:2]; Gly(cHept) = N[C@H](C(=O)O)C1CCCCCC1; aThr = C[C@H](O)[C@H](N)C(=O)O; NMeL = CN[C@@H](CC(C)C)C(=O)O; Chg = N[C@H](C(=O)O)C1CCCCC1; NMeNva = CCC[C@H](NC)C(=O)O; Dap = NC[C@H](N)C(=O)O
QUANTITY: remaining at 24 h (%)
One number for each entry, in %.

COMPOUND	remaining at 24 h, %
CCCC[C@H]1C(=O)N(C)[C@@H](CC(C)C)C(=O)N[C@@H](C2CCCCC2)C(=O)N[C@@H](CN)C(=O)N[C@@H]([C@H](C)O)C(=O)N[C@H](C)CN1CCCC (cyclo([Chg][Dap][aThr][dAlaψ(CH2NBu)Nle][NMeL]))	97
CCC[C@H]1C(=O)N[C@@H](C2CCCCCC2)C(=O)N[C@@H](CN)C(=O)N[C@@H](CO[C@H]2C[C@H](N)C2)C(=O)N[C@H](C)CO[C@H](CC2CC3(CCC3)C2)[C@@H](C)C(=O)N1C (cyclo([Dap]S(Cyclobutyl(trans-3-NH2))[X3][NMeNva][Gly(cHept)]))	103
CCCCCCN1CCNC(=O)[C@H]([C@H](C)O)NC(=O)[C@H](CN)NC(=O)[C@H](C2CCCCC2)NC(=O)[C@H](CC(C)C)N(C)C(=O)[C@@H]1C (cyclo([Chg][Dap][aThr][X4][NMeL]))	95
CCCCCCN1CCNC(=O)[C@H](CO[C@H]2C[C@H](N)C2)NC(=O)[C@H](CN)NC(=O)[C@H](C2CCCCC2)NC(=O)[C@H](CC(C)C)N(C)C(=O)[C@@H]1C (cyclo([Chg][Dap]S(Cyclobutyl(trans-3-NH2))[X4][NMeL]))	110
CCCCCC[C@H]1C(=O)N(C)[C@@H](CC(C)C)C(=O)N[C@@H](C2CCCCC2)C(=O)N[C@@H](CN)C(=O)N[C@@H]([C@H](C)O)C(=O)NCCN1C	92
CCCCCC[C@H]1OC[C@@H](CC)NC(=O)[C@H]([C@H](C)O)NC(=O)[C@H](CN)NC(=O)[C@H](C2CCCCC2)NC(=O)[C@H](CC(C)C)N(C)C(=O)[C@@H]1C (cyclo([Chg][Dap][aThr][X10][NMeL]))	101
CCCCCC[C@H]1O[C@H](C)CNC(=O)[C@H]([C@H](C)O)NC(=O)[C@H](CN)NC(=O)[C@H](C2CCCCC2)NC(=O)[C@H](CC(C)C)N(C)C(=O)[C@@H]1C (cyclo([Chg][Dap][aThr][X7][NMeL]))	100
CCCCCC[C@H]1OCCCNC(=O)[C@H]([C@H](C)O)NC(=O)[C@H](CN)NC(=O)[C@H](C2CCCCC2)NC(=O)[C@H](CC(C)C)N(C)C(=O)[C@@H]1C	96
CCCCCC[C@H]1OC(=O)CNC(=O)[C@H]([C@H](C)O)NC(=O)[C@H](CO)NC(=O)[C@H]([C@H](C)CC)NC(=O)[C@H](CC(C)C)N(C)C(=O)[C@@H]1C	100

Next, consider the following compound.
Field remaining at 24 h (entry CCCCCC[C@H]1O[C@@H](C)CNC(=O)[C@H]([C@H](C)O)NC(=O)[C@H](CN)NC(=O)[C@H](C2CCCCC2)NC(=O)[C@H](CC(C)C)N(C)C(=O)[C@@H]1C (cyclo([Chg][Dap][aThr][X8][NMeL])) ) reads 91
